// provenance: patent US11685732B2

Catalogue of molecules with associated pIC50
target: KAT-6A (Homo sapiens (Human), UniProt Q92794); test: KAT-6A biochemical inhibition assay (SAMDI mass spectrometry)
Sequence (Q92794 other isoform, or with tags, fused parts or gaps): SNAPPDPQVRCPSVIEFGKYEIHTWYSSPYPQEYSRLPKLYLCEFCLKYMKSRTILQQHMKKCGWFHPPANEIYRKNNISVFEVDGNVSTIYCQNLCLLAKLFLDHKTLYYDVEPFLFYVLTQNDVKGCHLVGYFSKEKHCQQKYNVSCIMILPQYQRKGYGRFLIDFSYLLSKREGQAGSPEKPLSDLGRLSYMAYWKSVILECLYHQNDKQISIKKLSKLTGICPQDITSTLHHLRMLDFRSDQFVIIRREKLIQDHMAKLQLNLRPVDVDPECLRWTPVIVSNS
pIC50: −log10 of the molar value.
MEASUREMENT NAME: pIC50

molecule=Cn1cnc(-c2cc(Cl)c(F)c(C(=O)NNS(=O)(=O)c3ccc(Cl)cc3F)c2)c1 measurement_name=pIC50 measured_result="> 5.00"
molecule=Cn1cnc(-c2cc(Cl)c(F)c(C(=O)NNS(=O)(=O)C[C@H]3CC[C@H](N)CC3)c2)c1 measurement_name=pIC50 measured_result="4.30 to 5.00"
molecule="Cn1cnc(-c2cc(Cl)c(F)c(C(=O)NNS(=O)(=O)CC3CCCCO3)c2)c1 (stereo not shown)" measurement_name=pIC50 measured_result="> 5.00"
molecule=Cn1cnc(-c2cc(Cl)c(F)c(C(=O)NNS(=O)(=O)C3CCCCC3)c2)c1 measurement_name=pIC50 measured_result="> 5.00"
